Each recorded value in this set is attributed to patent US20230265217A1.

Target: T1, Antibody 178-08_His 501.V2 (27079) (SARS-CoV-2, UniProt P0DTC2 14-685)
T1 construct: domain: S1; also called TB178-8
Assay: Carterra SPR
MEASURE: binding result

binder="7-45 (VHH) VHH: EVQLVESGGGLVQPGGSLRLSCAASGRTLSRYTMGWFRQAPGKEREFVASITSGGSTNYADSVKGRFTISADNSKNTAYLQMNSLKPEDTAVYYCAKEDVGKPFDWGQGTLVTVSS" measured="no binding"
binder="7-17 (VHH, not shown: a dimerising Fc or GST) VHH: EVQLVESGGGLVQPGGSLRLSCAASGFSLDYYGMGWFRQAPGKEREFVAAITSGGTPHYADSVKGRFTISADNSKNTAYLQMNSLKPEDTAVYYCASAYNPGIGYDWGQGTLVTVSS" measured="no binding"
binder="7-40 (VHH) VHH: EVQLVESGGGLVQPGGSLRLSCAASGRTFRRYTMGWFRQAPGKEREFVASITKFGSTNYADSVKGRFTISADNSKNTAYLQMNSLKPEDTAVYYCAKEDVGKPFDWGQGTLVTVSS" measured="no binding"
binder="7-09 (VHH, also called 7-9) VHH: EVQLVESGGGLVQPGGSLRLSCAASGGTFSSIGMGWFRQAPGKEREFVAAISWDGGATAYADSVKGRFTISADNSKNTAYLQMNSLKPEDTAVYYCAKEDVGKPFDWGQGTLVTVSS" measured="no binding"
binder="7-30 (VHH, not shown: a dimerising Fc or GST) VHH: EVQLVESGGGLVQPGGSLRLSCAASGRTFSMHAMGWFRQAPGKEREFVASISSQGRTNYADSVKGRFTISADNSKNTAYLQMNSLKPEDTAVYYCAAEVRNGSDYLPIDWGQGTLVTVSS" measured="no binding"
binder="7-41 (VHH) VHH: EVQLVESGGGLVQPGGSLRLSCAASGRTFSTYVMGWFRQAPGKEREFVASISSRGITHYADSVKGRFTISADNSKNTAYLQMNSLKPEDTAVYYCAKEDVGKPFDWGQGTLVTVSS" measured="no binding"
binder="8-10 (VHH, not shown: a dimerising Fc or GST) VHH: EVQLVESGGGLVQPGGSLRLSCAASGFIGNYHAMGWFRQAPGKEREFVAAVTWSGGTTNYADSVKGRFTISADNSKNTAYLQMNSLKPEDTAVYYCAREGYYYDSSGYPYYFDYWGQGTLVTVSS" measured="no binding"
binder="7-8 (VHH) VHH: EVQLVESGGGLVQPGGSLRLSCAASGSTFTINAMGWFRQAPGKEREFVSGISHNGGTTNYADSVKGRFTISADNSKNTAYLQMNSLKPEDTAVYYCAADGVPEYSDYASGPVWGQGTLVTVSS" measured="no binding"
binder="8-06 (VHH, not shown: a dimerising Fc or GST, also called 8-6) VHH: EVQLVESGGGLVQPGGSLRLSCAASGFTFDYYAMGWFRQAPGKEREFVSAIDSEGRTSYADSVKGRFTISADNSKNTAYLQMNSLKPEDTAVYYCARWGPFDIWGQGTLVTVSS" measured="no binding"
